tested on: NCI-H460; test: NCI tumour cell line growth inhibition, 48 h
The source made the active and inactive calls. Rule as the data show it: active = GI50 up to about 1.1 µM and inactive = higher.

molecule	target.or.system	GI50
CC(=O)OC1(C#N)CC2OC1C1C2N1C(=O)c1ccccc1 (stereo unspecified)	NCI-H460	> 100 µM (inactive)
Cc1ccc(O)c(-c2cc(-c3cccc(Br)c3)on2)c1	NCI-H460	29.1 µM (inactive)
CC(C)=CCC[C@@H](C)C1=C(O)C(O)C(C)=C2N=C(c3ccccc3)C(=O)OC21 (stereo partly specified)	NCI-H460	1.19 µM (inactive)
CC(=O)OC1COC(N2CCc3cc([N+](=O)[O-])ccc32)C(OC(C)=O)C1OC(C)=O (stereo unspecified)	NCI-H460	> 100 µM (inactive)
O=C(Nc1ccc2ncccc2c1)Nc1ccc2ncccc2c1	NCI-H460	> 100 µM (inactive)
O=C1C(c2ccc(Br)cc2)=[N+]([O-])c2ccccc21	NCI-H460	16.9 µM (inactive)
